# procedure_summary: Antagonist activity at human CCR2 receptor expressed in CHO cells by chemotaxis assay

| compound | IC50, nM |
| --- | --- |
| CC(C)[C@]1(C(=O)NCc2cc(C(F)(F)F)cc(C(F)(F)F)c2)CC[C@@H](NC2CCOCC2F)C1 (stereo partly specified) | 0.8 |
| CC(C)[C@]1(C(=O)NCc2cc(C(F)(F)F)cc(C(F)(F)F)c2)CC[C@@H](NC2CCOCC2C(F)(F)F)C1 (stereo partly specified) | 1 |
| CCC1COCCC1N[C@@H]1CC[C@@](C(=O)NCc2cc(C(F)(F)F)cc(C(F)(F)F)c2)(C(C)C)C1 (stereo partly specified) | 0.3 |
| CC1COCCC1N[C@@H]1CC[C@@](C(=O)NCc2cc(C(F)(F)F)cc(C(F)(F)F)c2)(C(C)C)C1 (stereo partly specified) | 0.1 |
| CC(C)[C@]1(C(=O)NCc2cc(C(F)(F)F)cc(C(F)(F)F)c2)CC[C@@H](NC2COC2)C1 | 3.3 |
| CCCC1COCCC1N[C@@H]1CC[C@@](C(=O)NCc2cc(C(F)(F)F)cc(C(F)(F)F)c2)(C(C)C)C1 (stereo partly specified) | 5.1 |
